System: C. albicans (ATCC 10231)
Test: In vitro antifungal CFU assay
Format: cell-based, Candida albicans
Details: peptide alone 0.128 mg/mL, 24 h, pH 5.4; per 0.1 mL
Residues, ends and D or L forms follow the SMILES beside them.
Below, each entry is listed with its recorded mean CFU number ± S.D..

Solved cases below.
COMPOUND	RECORDED_RESULT
CC[C@H](C)[C@H](NC(=O)[C@H](C)NC(=O)[C@@H](N)C(C)C)C(=O)N[C@@H](C)C(=O)N[C@@H](CC(C)C)C(=O)N[C@@H](CCCCN)C(=O)N[C@@H](C)C(=O)N[C@@H](C)C(=O)N[C@@H](Cc1c[nH]cn1)C(=O)N[C@@H](Cc1ccc(O)cc1)C(=O)N[C@@H](Cc1c[nH]cn1)C(=O)N[C@H](C(=O)N[C@@H](Cc1c[nH]cn1)C(=O)N[C@@H](CCCCN)C(=O)N[C@@H](CCC(=O)O)C(N)=O)[C@@H](C)O [L3, VAIALKAAHYHTHKE-NH2] (H-VAIALKAAHYHTHKE-NH2)	2,164 ± 101 CFU
CC[C@H](C)[C@H](NC(=O)[C@H](C)NC(=O)[C@@H](NC(C)=O)C(C)C)C(=O)N[C@@H](C)C(=O)N[C@@H](CC(C)C)C(=O)N[C@@H](CCCCN)C(=O)N[C@@H](C)C(=O)N[C@@H](C)C(=O)N[C@@H](Cc1c[nH]cn1)C(=O)N[C@@H](Cc1ccc(O)cc1)C(=O)N[C@@H](Cc1c[nH]cn1)C(=O)N[C@H](C(=O)N[C@@H](Cc1c[nH]cn1)C(=O)N[C@@H](CCCCN)C(=O)N[C@@H](CCC(=O)O)C(N)=O)[C@@H](C)O [L2, Ac-VAIALKAAHYHTHKE-NH2] (Ac-VAIALKAAHYHTHKE-NH2)	1,732 ± 249 CFU

Consider the record given below.
Prompt: Hello, I am looking for reported mean CFU number ± S.D. with C. albicans (ATCC 10231) for CC[C@H](C)[C@H](NC(=O)[C@H](C)NC(=O)[C@@H](N)C(C)C)C(=O)N[C@@H](C)C(=O)N[C@@H](CC(C)C)C(=O)N[C@@H](CCCCN)C(=O)N[C@@H](C)C(=O)N[C@@H](C)C(=O)N[C@@H](Cc1c[nH]cn1)C(=O)N[C@@H](Cc1ccc(O)cc1)C(=O)N[C@@H](Cc1c[nH]cn1)C(=O)N[C@H](C(=O)N[C@@H](Cc1c[nH]cn1)C(=O)N[C@@H](CCCCN)C(=O)N[C@@H](CCC(=O)O)C(=O)O)[C@@H](C)O [WT, VAIALKAAHYHTHKE, reference compound] (H-VAIALKAAHYHTHKE-OH) . Could you help?
Response: 1,052 ± 531 CFU

---

Settings: T = 298 K, I = 0.1 M (KCl); charges omitted
Residues, ends and D or L forms follow the SMILES beside them.
EXPERIMENTAL_ENDPOINT: logβ [ZnHL]

Prompt: Which logβ [ZnHL] reading was recorded for the compound CC[C@H](C)[C@H](NC(=O)[C@H](C)NC(=O)[C@@H](NC(C)=O)C(C)C)C(=O)N[C@@H](C)C(=O)N[C@@H](CC(C)C)C(=O)N[C@@H](CCCCN)C(=O)N[C@@H](C)C(=O)N[C@@H](C)C(=O)N[C@@H](Cc1c[nH]cn1)C(=O)N[C@@H](Cc1ccc(O)cc1)C(=O)N[C@@H](Cc1c[nH]cn1)C(=O)N[C@H](C(=O)N[C@@H](Cc1c[nH]cn1)C(=O)N[C@@H](CCCCN)C(=O)N[C@@H](CCC(=O)O)C(=O)O)[C@@H](C)O [L1, Ac-VAIALKAAHYHTHKE] (Ac-VAIALKAAHYHTHKE-OH) ?
Response: 11.00(5)

---

Test system: S. aureus (ATCC 25293)
Assay: In vitro anti-S. aureus CFU assay
Assay type: cell-based, Staphylococcus aureus
Conditions: peptide 0.128 mg/mL + ZnCl2 (0.9:1), 3 h, pH 5.4; per 0.1 mL
Experimental: All microbes were grown at 37 °C in Tryptic Soy Broth (TSB; Biolife, Milan, Italy) or Tryptic Soy Agar plates (TSA, Biolife, Milan, Italy). Peptides were tested at a final concentration C = 0.128, 0.064, 0.032 mg/mL, in the presence or absence of ZnCl2 or CuCl2, at a M:L molar ratio 0.9:1. […]
Residues, ends and D or L forms follow the SMILES beside them.
EXPERIMENTAL_ENDPOINT: mean CFU number ± S.D.
Please provide the amount together with its unit, number first.

Prompt: Which mean CFU number ± S.D. reading was recorded for the molecule CC[C@H](C)[C@H](NC(=O)[C@H](C)NC(=O)[C@@H](N)C(C)C)C(=O)N[C@@H](C)C(=O)N[C@@H](CC(C)C)C(=O)N[C@@H](CCCCN)C(=O)N[C@@H](C)C(=O)N[C@@H](C)C(=O)N[C@@H](Cc1c[nH]cn1)C(=O)N[C@@H](Cc1ccc(O)cc1)C(=O)N[C@@H](Cc1c[nH]cn1)C(=O)N[C@H](C(=O)N[C@@H](Cc1c[nH]cn1)C(=O)N[C@@H](CCCCN)C(=O)N[C@@H](CCC(=O)O)C(N)=O)[C@@H](C)O [L3, VAIALKAAHYHTHKE-NH2] (H-VAIALKAAHYHTHKE-NH2) ?
Response: 48 ± 8 CFU

---

Test system: C. albicans (ATCC 10231)
Test: In vitro antifungal CFU assay
Type: cell-based, Candida albicans
Details: peptide alone 0.064 mg/mL, 24 h, pH 5.4; per 0.1 mL
Residues, ends and D or L forms follow the SMILES beside them.
EXPERIMENTAL_ENDPOINT: mean CFU number ± S.D.

COMPOUND	mean CFU number ± S.D.
CC[C@H](C)[C@H](NC(=O)[C@H](C)NC(=O)[C@@H](NC(C)=O)C(C)C)C(=O)N[C@@H](C)C(=O)N[C@@H](CC(C)C)C(=O)N[C@@H](CCCCN)C(=O)N[C@@H](C)C(=O)N[C@@H](C)C(=O)N[C@@H](Cc1c[nH]cn1)C(=O)N[C@@H](Cc1ccc(O)cc1)C(=O)N[C@@H](Cc1c[nH]cn1)C(=O)N[C@H](C(=O)N[C@@H](Cc1c[nH]cn1)C(=O)N[C@@H](CCCCN)C(=O)N[C@@H](CCC(=O)O)C(N)=O)[C@@H](C)O [L2, Ac-VAIALKAAHYHTHKE-NH2] (Ac-VAIALKAAHYHTHKE-NH2)	1,480 ± 198 CFU
CC[C@H](C)[C@H](NC(=O)[C@H](C)NC(=O)[C@@H](N)C(C)C)C(=O)N[C@@H](C)C(=O)N[C@@H](CC(C)C)C(=O)N[C@@H](CCCCN)C(=O)N[C@@H](C)C(=O)N[C@@H](C)C(=O)N[C@@H](Cc1c[nH]cn1)C(=O)N[C@@H](Cc1ccc(O)cc1)C(=O)N[C@@H](Cc1c[nH]cn1)C(=O)N[C@H](C(=O)N[C@@H](Cc1c[nH]cn1)C(=O)N[C@@H](CCCCN)C(=O)N[C@@H](CCC(=O)O)C(N)=O)[C@@H](C)O [L3, VAIALKAAHYHTHKE-NH2] (H-VAIALKAAHYHTHKE-NH2)	2,204 ± 170 CFU
CC[C@H](C)[C@H](NC(=O)[C@H](C)NC(=O)[C@@H](NC(C)=O)C(C)C)C(=O)N[C@@H](C)C(=O)N[C@@H](CC(C)C)C(=O)N[C@@H](CCCCN)C(=O)N[C@@H](C)C(=O)N[C@@H](C)C(=O)N[C@@H](Cc1c[nH]cn1)C(=O)N[C@@H](Cc1ccc(O)cc1)C(=O)N[C@@H](Cc1c[nH]cn1)C(=O)N[C@H](C(=O)N[C@@H](Cc1c[nH]cn1)C(=O)N[C@@H](CCCCN)C(=O)N[C@@H](CCC(=O)O)C(=O)O)[C@@H](C)O [L1, Ac-VAIALKAAHYHTHKE] (Ac-VAIALKAAHYHTHKE-OH)	1,807 ± 433 CFU

Prompt: Which mean CFU number ± S.D. reading was recorded for the compound CC[C@H](C)[C@H](NC(=O)[C@H](C)NC(=O)[C@@H](N)C(C)C)C(=O)N[C@@H](C)C(=O)N[C@@H](CC(C)C)C(=O)N[C@@H](CCCCN)C(=O)N[C@@H](C)C(=O)N[C@@H](C)C(=O)N[C@@H](Cc1c[nH]cn1)C(=O)N[C@@H](Cc1ccc(O)cc1)C(=O)N[C@@H](Cc1c[nH]cn1)C(=O)N[C@H](C(=O)N[C@@H](Cc1c[nH]cn1)C(=O)N[C@@H](CCCCN)C(=O)N[C@@H](CCC(=O)O)C(=O)O)[C@@H](C)O [WT, VAIALKAAHYHTHKE, reference compound] (H-VAIALKAAHYHTHKE-OH) ?
Response: 1,289 ± 495 CFU

Origin of values: paper PMC10600247
